- Study target: KRAS(G12C) and SOS1 binding (Homo sapiens, UniProt Q07889)
- Sequence (Q07889 564-1049, stated change not applied): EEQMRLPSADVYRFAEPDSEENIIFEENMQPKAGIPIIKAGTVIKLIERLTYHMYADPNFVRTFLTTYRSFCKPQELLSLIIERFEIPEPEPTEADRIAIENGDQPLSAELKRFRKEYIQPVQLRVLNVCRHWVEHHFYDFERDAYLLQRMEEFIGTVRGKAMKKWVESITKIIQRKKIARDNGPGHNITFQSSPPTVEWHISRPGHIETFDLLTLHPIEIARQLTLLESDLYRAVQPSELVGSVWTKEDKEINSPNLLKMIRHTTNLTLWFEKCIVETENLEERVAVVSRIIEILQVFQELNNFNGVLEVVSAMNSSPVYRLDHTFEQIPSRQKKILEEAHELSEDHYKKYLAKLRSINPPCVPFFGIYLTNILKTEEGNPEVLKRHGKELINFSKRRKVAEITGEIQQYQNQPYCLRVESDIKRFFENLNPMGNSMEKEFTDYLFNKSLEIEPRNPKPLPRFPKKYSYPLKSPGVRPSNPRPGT
- Test: KRAS (G12C) and SOS1 binding assay (HTRF)
- Measurement parameters: 25° C., 60 minutes, read-out: IC50, inhibitory activity on KRAS(G12C) and SOS1 binding
- Procedure: 1. Experimental Materials: Multifunctional microplate reader Nivo5 was purchased from PerkinElmer. 2. Preparation of 1× Buffer: The buffer for this experiment was the current preparation. Preparation method: 4-Hydroxyethylpiperazineethanesulfonic acid (Hepes): 5 mM; sodium chloride (NaCl): 150 mM; ethylenediaminetetraacetic acid (EDTA): 10 mM; CO-630 (Igepal): 0.0025%; potassium fluoride (KF): 100 mM; dithiothreitol (DTT): 1 mM; bovine serum albumin (BSA): 0.05%. […]
Hi there, I'd appreciate the recorded IC50 for every entry that follows.
Numbers only, in nM.

C=CC(Nc1nc(C)nc2cc(=O)n(C3(CF)CC3)cc12)c1cc(N)cc(C(F)(F)F)c1 (centres unmarked) [Compound 3]	25
C=CC(Nc1nc(C)nc2cc(=O)n(C3(C)CCOC3)cc12)c1cc(N)cc(C(F)(F)F)c1 (centres unmarked) [Compound 2]	26
C=CC(Nc1nc(C)nc2cc(=O)n(C34CCC(O)(CC3)CC4)cc12)c1cc(N)cc(C(F)(F)F)c1 (centres unmarked) [Compound 4]	21

Quick batch: IC50 for everything below.
1. C=C[C@@H](Nc1nc(C)nc2cc(=O)n(C3(C(F)F)CC3)cc12)c1cc(C(F)(F)CO)cs1 [Compound 7]
2. C=CC(Nc1nc(C)nc2cc(=O)n(C3CCOCC3)cc12)c1cc(N)cc(C(F)(F)F)c1 (centres unmarked) [Compound 1]

RESULT:
[13, 32]

* * *

- Test: Pharmacokinetic study in mice
- Type: in vivo
- Measurement parameters: mouse, plasma, oral, intragastric 3 mg/Kg vs intravenous 1 mg/Kg, read-out: F % (oral bioavailability)
Property measured: bioavailability (%)
Numbers only, in %.

QUERY: Give its bioavailability value. Item: C=C[C@@H](Nc1nc(C)nc2cc(=O)n(C3(C(F)F)CC3)cc12)c1cccc(C(F)F)c1F [Compound 8]
RESULT: 109

* * *

- Test: Pharmacokinetic study in mice
- Format: in vivo
- Measurement parameters: mouse, plasma, po, intragastric administration, 3 mg/Kg
Property measured: Cmax

QUERY: Give its Cmax value. Item: C=C[C@@H](Nc1nc(C)nc2cc(=O)n(C3(C(F)F)CC3)cc12)c1cccc(C(F)F)c1F
RESULT: 1380 nM

* * *

- Test: Pharmacokinetic study in mice
- Assay type: in vivo
- Measurement parameters: mouse, plasma, intravenous injection, 1 mg/Kg
Property measured: clearance (mL/min/kg)
Numbers only, in mL/min/kg.

QUERY: Give its clearance value. Item: C=C[C@@H](Nc1nc(C)nc2cc(=O)n(C3(C(F)F)CC3)cc12)c1cccc(C(F)F)c1F
RESULT: 30.5

* * *

- Test: Pharmacokinetic study in mice
- Assay type: in vivo
- Measurement parameters: mouse, plasma, intravenous injection, 1 mg/Kg, read-out: Vdss
Property measured: Vd (L/kg)
One number for each entry, in L/kg.

QUERY: Give its Vd value. Item: C=C[C@@H](Nc1nc(C)nc2cc(=O)n(C3(C(F)F)CC3)cc12)c1cccc(C(F)F)c1F
RESULT: 1.84

* * *

- Test: Pharmacokinetic study in mice
- Type: in vivo
- Measurement parameters: mouse, plasma, po, intragastric administration, 3 mg/Kg, read-out: AUC0-24 h
Property measured: AUC(0-t) (µM·h)
Numbers only, in µM·h.

QUERY: Give its AUC(0-t) value. Item: C=C[C@@H](Nc1nc(C)nc2cc(=O)n(C3(C(F)F)CC3)cc12)c1cccc(C(F)F)c1F [Compound 8]
RESULT: 4.11
